Overview of recorded pest or weed control at 50 g/ha for various compounds
system: barnyard grass; assay: Herbicidal activity test against upland field weeds (soil treatment test); assay type: in vivo; details: Echinochloa crus-galli, 50 g ai/ha, scale 0 (no control) to 100 (complete control)
Unit % implied. Number only.

1) Cn1nnnc1COCc1nc(C(F)(F)F)ccc1C(=O)Nc1nnnn1C [Compound No. 1-61]    20
2) Cn1nnc(COCc2nc(C(F)(F)F)ccc2C(=O)N(c2nnnn2C)S(C)(=O)=O)n1 [Compound No. 2-69]    100
3) Cn1nnc(COCc2nc(C(F)F)ccc2C(=O)Nc2nnnn2C)n1 [Compound No. 2-84]    70
4) Cn1nnc(CSCc2nc(C(F)(F)F)ccc2C(=O)Nc2nnnn2C)n1 [Compound No. 2-102]    98
5) Cn1ncnc1COc1nc(C(F)(F)F)ccc1C(=O)Nc1nnnn1C [Compound No. 1-45]    98
6) C#CCN(Cc1nnn(C)n1)c1nc(C(F)(F)F)ccc1C(=O)Nc1nnnn1C [Compound No. 2-28]    70
7) Cn1ncnc1COCc1nc(C(F)(F)F)ccc1C(=O)Nc1nnnn1C [Compound No. 1-102]    20
8) Cn1nnc(COCc2nc(C(F)(F)F)ccc2C(=O)N(C(=O)c2ccccc2)c2nnnn2C)n1 [Compound No. 2-68]    98

Inquiry: For the record CON(Cc1nnn(C)n1)Cc1nc(C(F)F)ccc1C(=O)Nc1nnnn1C [Compound No. 2-86] , what value of pest or weed control at 50 g/ha is listed for barnyard grass?
Reply text: 98

Inquiry: Please tell me: pest or weed control at 50 g/ha of Cn1nnnc1COc1nc(C(F)(F)F)ccc1C(=O)Nc1nnnn1C [Compound No. 1-1] , system barnyard grass?
Reply text: 95
